tested on: T-Rex 293 cell line SC3 cells lacking increased expression of androgen receptor protein; assay: Cellular growth inhibition assay, T-Rex 293 SC3 cells without doxycycline (CellTiter-Glo, 72 hours); format: cell-based; settings: 72 h, T-Rex 293 cell line SC3 cells not exposed to doxycycline (lacking increased androgen receptor expression)
measured property: GI50

>  <compound>
Cc1sc2c(c1C)C(c1cccc(CC3CC4(CCN(c5ccc(C(=O)N[C@H]6CC[C@H](Oc7ccc(C#N)c(Cl)c7)CC6)nn5)CC4)C3)c1)=N[C@@H](C)c1nnc(C)n1-2 [I-684]

>  <GI50>
> 3000 nM

$$$$
>  <compound>
Cc1sc2c(c1C)C(c1ccc(N3CC4(CCN(c5ncc(C(=O)N[C@H]6CC[C@H](Oc7ccc(C#N)c(Cl)c7)CC6)cn5)CC4)C3)cc1)=NC(Cc1ncco1)c1nnc(C)n1-2 (stereo partly shown) [I-777]

>  <GI50>
< 500 nM

$$$$
>  <compound>
COC[C@@H]1N=C(c2ccc(N3CCC4(CCN(c5ccc(C(=O)N[C@H]6CC[C@H](Oc7ccc(C#N)c(Cl)c7)CC6)nn5)CC4)C3)cc2)c2c(sc(C)c2C)-n2c(C)nnc21 [I-615]

>  <GI50>
< 500 nM

$$$$
>  <compound>
Cc1sc2c(c1C)C(c1ccc(CC3CC4(CCN(c5ccc(C(=O)N[C@H]6CC[C@H](Oc7ccc(C#N)c(Cl)c7)CC6)nn5)CC4)C3)cc1)=NC1(CC1)c1nnc(C)n1-2 [I-444]

>  <GI50>
> 3000 nM

$$$$
>  <compound>
Cc1sc2c(c1C)C(c1ccc([C@H]3CCN(C(=O)[C@H]4CCCN(c5ccc(C(=O)N[C@H]6CC[C@H](Oc7ccc(C#N)c(Cl)c7)CC6)nn5)C4)C3)cc1)=N[C@@H](Cc1ncco1)c1nnc(C)n1-2 [I-345]

>  <GI50>
> 3000 nM

$$$$

Task: Return reported GI50; argument: Cc1sc2c(c1C)C(c1ccc(CNC(=O)CN(C)c3ccc(C(=O)N[C@H]4CC[C@H](Oc5ccc(C#N)c(Cl)c5)CC4)nn3)cc1)=N[C@@H](Cc1ncco1)c1nnc(C)n1-2 [I-243]
Output: 500 to 1500 nM

Task: Return reported GI50; argument: Cc1sc2c(c1C)C(c1ccc(CC3CC4(CCN(c5ccc(C(=O)N[C@H]6CC[C@H](Oc7ccc(C#N)c(Cl)c7)CC6)nn5)CC4)C3)cc1)=N[C@@H](Cc1ncco1)c1nnc(C)n1-2 [I-112]
Output: < 500 nM

Task: Return reported GI50; argument: CCNC(=O)C[C@@H]1N=C(c2ccc(CCCOC3CCN(c4ccc(C(=O)N[C@H]5CC[C@H](Oc6ccc(C#N)c(Cl)c6)CC5)nn4)CC3)cc2)c2c(sc(C)c2C)-n2c(C)nnc21 [I-17]
Output: < 500 nM

Task: Return reported GI50; argument: Cc1sc2c(c1C)C(c1ccc(C(C)(C)N3CCC4(CCCN(c5ccc(C(=O)N[C@H]6CC[C@H](Oc7ccc(C#N)c(Cl)c7)CC6)nn5)C4)C3)cc1)=N[C@@H](Cc1ncco1)c1nnc(C)n1-2 (stereo partly shown) [I-359]
Output: > 3000 nM

Task: Return reported GI50; argument: Cc1sc2c(c1C)C(c1ccc(OCC[C@H]3CCCN(c4ccc(C(=O)N[C@H]5CC[C@H](Oc6ccc(C#N)c(Cl)c6)CC5)nn4)C3)cc1)=N[C@@H](Cc1ncco1)c1nnc(C)n1-2 [I-257]
Output: < 500 nM
